The reported numbers originate from paper PMC10710035.

# assay-notes: Plasma pharmacokinetics, cycle 1 day 3
# Assay type: in vivo, human
# details: human, in vivo
measured-parameter: clearance (mL/min)
Dear colleague, please return just the value in mL/min, with no unit written.

Exercise: May I ask what clearance has been recorded for `C[C@]1(c2nc3c(C(N)=O)cccc3[nH]2)CCCN1` ?
Key: 387

* * *

# assay-notes: Plasma pharmacokinetics, cycle 1 day 3
# Format: in vivo, human
# details: human, in vivo
measured-parameter: half-life (h)
A number alone suffices; assume h.

Exercise: For the compound C[C@]1(c2nc3c(C(N)=O)cccc3[nH]2)CCCN1 [veliparib] , what half-life is on record?
Key: 4.8
